measured on: Glycogen synthase kinase-3 alpha (Homo sapiens)
method summary: concentration-response blocking of human GSK3A – biochemical, luminescence, cell-free homogeneous, retest, dose response (AID 463203)
reported conditions: GSK-3 alpha enzyme, ADP-Glo luminescence, 60 min
Active and inactive are the calls of the source.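 The calls were made as follows: active = more than half of replicate measurements showing over 20% loss of kinase signal relative to plate controls; inconclusive = some but at most half of replicates over 20% loss; inactive = no replicate over 20% signal loss.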
Write down the outcome that applies. Available outcomes: t (active), f (inactive)

Which outcome did this test record for the compound `CNC(=O)NCC12CC3CC(CC(C3)C1)C2` ? f

Which outcome did this test record for the compound `O=C(c1coc2ccc(O)c(CN3CCOCC3)c12)C1CC1` ? t

Which outcome did this test record for the compound `COC(=O)c1cc(O)c(OCc2ccccc2)c(O)c1` ? f

Which outcome did this test record for the compound `CCN1C(=O)/C(=C/c2cccs2)N(C)C1=S` ? f

Which outcome did this test record for the compound O=C(OCC1OC2OC3(CCCCC3)OC2C2OC3(CCCCC3)OC12)c1ccccc1 (stereo unspecified) ? f

Which outcome did this test record for the compound `Cc1ccc(C(=O)c2cc(C)sc2NC(=O)CN2CCN(C(=O)c3ccco3)CC2)cc1` ? f

Which outcome did this test record for the compound `COc1ccc(-n2c(O)c(C=NCCCn3ccnc3)c(=O)[nH]c2=O)cc1` ? t

Which outcome did this test record for the compound `CCOc1cccc(-c2c(C(=O)N/N=C/c3ccco3)nnn2-c2nonc2N)c1` ? t

Which outcome did this test record for the compound CCCCCCCOC(=O)C1=C(C)Nc2ncnn2C1c1cccs1 (stereo unspecified) ? f

Which outcome did this test record for the compound `CCSc1cc(N2CCCC2)nc(-c2ccccc2)n1` ? f

Which outcome did this test record for the compound `O=C(COc1cccc2cccnc12)N/N=C/c1ccccc1O` ? f

* * *

measured on: UniProt:P49840
Sequence (P49840 whole entry, looked up): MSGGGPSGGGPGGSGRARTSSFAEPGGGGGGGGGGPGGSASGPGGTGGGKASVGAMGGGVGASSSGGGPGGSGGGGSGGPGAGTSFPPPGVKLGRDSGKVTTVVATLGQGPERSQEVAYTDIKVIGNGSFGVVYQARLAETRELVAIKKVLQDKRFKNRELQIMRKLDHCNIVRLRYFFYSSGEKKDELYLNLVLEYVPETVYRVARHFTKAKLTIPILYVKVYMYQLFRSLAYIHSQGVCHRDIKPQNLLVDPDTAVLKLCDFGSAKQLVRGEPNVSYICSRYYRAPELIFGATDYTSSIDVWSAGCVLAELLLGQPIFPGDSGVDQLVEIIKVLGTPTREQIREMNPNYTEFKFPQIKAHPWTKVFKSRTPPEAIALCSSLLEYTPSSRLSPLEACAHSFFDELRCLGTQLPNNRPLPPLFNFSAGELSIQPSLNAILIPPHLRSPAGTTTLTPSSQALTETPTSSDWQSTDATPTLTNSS
method summary: concentration-response blocking of human GSK3A – biochemical, luminescence, cell-free homogeneous, retest, dose response (AID 463203)
reported conditions: GSK-3 alpha enzyme, ADP-Glo luminescence, 60 min
Activity calls are given as the source filed them.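 How the source made its calls: active means more than half of replicate measurements showing over 20% loss of kinase signal relative to plate controls; inconclusive means some but at most half of replicates over 20% loss; inactive means no replicate over 20% signal loss.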
Write down the outcome that applies. Available outcomes: YES (active), NO (inactive)

Which outcome did this test record for the molecule `CCOC(=O)c1c(Cc2ccccc2)c[nH]c1C` ? NO

Which outcome did this test record for the molecule `O=C(Nc1c(C(=O)O)oc2ccc(Br)cc12)c1ccccc1` ? YES

Which outcome did this test record for the molecule `Cc1ccc(Cn2nc(-c3ccccc3)nc2-c2ccccc2)cc1` ? NO

Which outcome did this test record for the molecule `CCCCOC(=O)n1ccc(C(=O)Nc2ccccc2OC)n1` ? YES

Which outcome did this test record for the molecule CCOC1(OCC)N=C(N)C2(C#N)C(c3cccc(C)c3)C12C#N (stereo unspecified) ? NO

Which outcome did this test record for the molecule `C/C(=N\NC(=O)c1nnn(-c2nonc2N)c1CN(C)c1ccccc1)c1ccc(O)cc1` ? NO

* * *

measured on: Glycogen synthase kinase-3 alpha (Homo sapiens)
method summary: concentration-response blocking of human GSK3A – biochemical, luminescence, cell-free homogeneous, retest, dose response (AID 463203)
reported conditions: GSK-3 alpha enzyme, ADP-Glo luminescence, 60 min
Calls of active or inactive are those of the source.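 How the source made its calls: active means more than half of replicate measurements showing over 20% loss of kinase signal relative to plate controls; inconclusive means some but at most half of replicates over 20% loss; inactive means no replicate over 20% signal loss.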
Write down the outcome that applies. Available outcomes: active, inactive

Which outcome did this test record for the compound `CN1CCc2nc3sc(C(=O)NC4CC4)c(N)c3cc2C1` ? inactive

Which outcome did this test record for the compound `Brc1ccccc1/C=N/Nc1ccc2ccccc2n1` ? inactive

Which outcome did this test record for the compound COc1cc(O)cc2c1C(=O)OC(C)CCCC(=O)CCC/C=C\2 (stereo unspecified) ? inactive

Which outcome did this test record for the compound `CCc1cc2c3c(c(=O)oc2cc1O)CCCC3` ? inactive

Which outcome did this test record for the compound `O=C1NC(=Nc2cccc(O)c2)S/C1=C\c1cccc([N+](=O)[O-])c1` ? inactive

Which outcome did this test record for the compound `CCOc1ccccc1NC(=O)Nc1ccc(Cl)cc1` ? inactive

Which outcome did this test record for the compound CNC(=O)c1ccsc1NC(=O)C1CCCN1S(=O)(=O)c1cccs1 (stereo unspecified) ? active

Which outcome did this test record for the compound `CCOc1ccc(-n2c(O)c(C=NCCCn3ccnc3)c(=O)[nH]c2=O)cc1` ? active

Which outcome did this test record for the compound `COc1ccc2nc(NC(=O)CN3C(=O)NC4(CCCC4)C3=O)sc2c1` ? active

Which outcome did this test record for the compound `Oc1ccc2oc3c(c2c1/C=N/n1cnnc1)CCCC3` ? inactive

Which outcome did this test record for the compound `O=C(c1ccc2c3n(nc2c1)-c1ccc(Cl)cc1CO3)N1CCOCC1` ? inactive
